Source listed as patent US20040063843A1.

# protocol: Surface tension measurement, Nouy ring method
# Format: physicochemical
# experimental-context: 20 ml aliquot, Kruss Model K 10 ST; liquid carrier tetrafluoropropanol, no coating moiety
assay-readout: Surface Tension
Quick note: unit goes after the number.

molecule `FC(F)CC(F)(F)F` , Surface Tension observed: 18 mN/m
